target_desc: T1, monkey CTLA-4, full length, on transfected HEK293 cells (monkey)
T1 construct: whole, on cells; also called cCTLA-4; HEK293-cCTLA-4
assay: FACS, 293F-cCTLA-4 cells
readout_kind: MFI at 40 nM
Number only, no unit.

Problem: Please report MFI at 40 nM for the following binder: 31C12F3 (chimeric antibody purified from hybridoma supernatant) (antibody, V domains shown, also called mAb010) VH: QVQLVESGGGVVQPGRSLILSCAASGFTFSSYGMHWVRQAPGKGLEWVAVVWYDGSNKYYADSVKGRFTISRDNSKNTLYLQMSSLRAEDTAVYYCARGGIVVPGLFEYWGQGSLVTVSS VL: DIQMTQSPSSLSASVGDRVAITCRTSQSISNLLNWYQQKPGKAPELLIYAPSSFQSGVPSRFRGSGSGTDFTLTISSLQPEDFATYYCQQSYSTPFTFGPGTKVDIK
Solution: 712

Problem: Please report MFI at 40 nM for the following binder: 92C8B6 (chimeric antibody purified from hybridoma supernatant) (antibody, V domains shown, also called mAb42; mAb042) VH: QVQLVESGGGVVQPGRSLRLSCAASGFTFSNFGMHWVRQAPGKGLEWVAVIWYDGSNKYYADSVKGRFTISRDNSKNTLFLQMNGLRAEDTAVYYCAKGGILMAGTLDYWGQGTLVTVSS VL: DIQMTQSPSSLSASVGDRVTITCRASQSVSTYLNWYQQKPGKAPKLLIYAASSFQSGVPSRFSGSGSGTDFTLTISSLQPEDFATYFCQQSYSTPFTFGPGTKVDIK
Solution: 800

Problem: Please report MFI at 40 nM for the following binder: 40C4C6 (chimeric antibody purified from hybridoma supernatant) (antibody, V domains shown, also called mAb09; mAb009) VH: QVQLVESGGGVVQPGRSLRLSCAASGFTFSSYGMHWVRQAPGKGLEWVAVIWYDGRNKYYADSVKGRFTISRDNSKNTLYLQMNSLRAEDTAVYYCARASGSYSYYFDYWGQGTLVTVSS VL: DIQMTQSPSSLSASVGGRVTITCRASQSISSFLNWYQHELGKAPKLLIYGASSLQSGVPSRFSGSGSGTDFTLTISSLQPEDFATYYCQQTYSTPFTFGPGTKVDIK
Solution: 626

Problem: Please report MFI at 40 nM for the following binder: 97A8D1 (chimeric antibody purified from hybridoma supernatant) (antibody, V domains shown, also called mAb49; mAb049) VH: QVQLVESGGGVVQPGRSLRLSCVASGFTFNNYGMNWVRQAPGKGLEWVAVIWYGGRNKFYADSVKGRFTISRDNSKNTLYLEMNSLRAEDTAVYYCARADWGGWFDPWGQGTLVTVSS VL: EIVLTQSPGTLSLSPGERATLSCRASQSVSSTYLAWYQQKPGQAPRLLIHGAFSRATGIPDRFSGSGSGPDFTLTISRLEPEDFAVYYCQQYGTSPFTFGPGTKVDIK
Solution: 910

The measurements presented in this section are drawn from patent US20210324080A1.
